system: MARIMO; test: cell viability relative to vehicle control; higher = less cytotoxic; conditions: 10 µM; SRSF2 genotype: SRSF2 wt/wt;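 note: after 48 h exposure read by CellTiter-Glo luminescence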
Measured cell viability values are reported for all entries that follow.
# number only, unit % dropped from output

Please review the following examples before continuing.
compound	measurementUnits	cell viability
CC1(C)CC[C@]2(C(=O)O[C@@H]3O[C@H](CO)[C@@H](O)[C@H](O)[C@H]3O)CC[C@]3(C)C(=CC[C@@H]4[C@@]5(C)CC[C@H](O[C@@H]6O[C@H](C(=O)O)[C@@H](O)[C@H](O)[C@H]6O[C@@H]6O[C@H](CO)[C@@H](O)[C@H](O)[C@H]6O)C(C)(C)[C@@H]5CC[C@]43C)[C@@H]2C1 [Ginsenoside Ro]	%	110
O=C(CCCCCCC(=O)N/N=C/c1ccc(N(c2ccccc2)c2ccccc2)cc1)NO	%	18.7
Cc1ccc([C@@H]2O[C@H](CO)[C@@H](O)[C@H](O)[C@H]2O)cc1Cc1ccc(-c2ccc(F)cc2)s1	%	90.3
C/C(=C\C(=O)OCCCCCCCCC(=O)O)C[C@@H]1OC[C@H](C[C@@H]2O[C@H]2[C@@H](C)[C@H](C)O)[C@@H](O)[C@H]1O [Mupirocin]	%	103
CNC[C@H](O)c1ccc(O)c(O)c1 [Epinephrine bitartrate (Adrenalinium)]	%	108

INPUT: Entry O=C(O)c1c[nH]c2cc(Cl)c(-c3ccc(C4(O)CCC4)cc3)cc12 : reported cell viability = ?
OUTPUT: 115

INPUT: May I ask what cell viability has been recorded for CC1=CCC[C@H](C)C(=O)C[C@@H](C(C)C)C(=O)C1 ?
OUTPUT: 90.8

INPUT: Consider the compound shown here: O=c1[nH]cnc2[nH]ncc12 [Allopurinol Sodium (Aloprim)] What is its recorded cell viability?
OUTPUT: 93.1

INPUT: Please give the measured cell viability for this compound: COc1ccc(C2=N[C@@H](c3ccc(Cl)cc3)[C@@H](c3ccc(Cl)cc3)N2C(=O)N2CCNC(=O)C2)c(OC(C)C)c1
OUTPUT: 93.3

----------
Form field: cell viability (one value per entry).
test system: MOLM14; test: cell viability relative to vehicle control; higher = less cytotoxic; conditions: 10 µM; SRSF2 genotype: SRSF2 wt/wt
I only need the number, in %, no unit after it.

Reference set (5 entries):
compound	cell viability, %
Fc1cc(-c2cccc3ncc(-c4cnn(C5CCNCC5)c4)nc23)cc(F)c1CN1CCOCC1	0.69
COc1ccc(C(=O)O)cc1O	90.6
CC(C(=O)O)c1cccc(Oc2ccccc2)c1 (stereo not given) [Fenoprofen calcium]	90.7
O=C(O)CCc1ccc(O)cc1	103
CCn1cc(-c2cccc(C(F)(F)F)c2)c2sc(C(=N)NC3CCS(=O)(=O)CC3)cc2c1=O	32.3

INPUT: For the record O=C(CCCCCCNC(=O)c1cnc(N(c2ccccc2)c2ccccc2)nc1)NO , what value of cell viability is listed for MOLM14?
OUTPUT: 2.08

INPUT: Look up cell viability with MOLM14 for this compound: OC[C@@H](O)[C@@H](O[C@H]1O[C@H](CO)[C@@H](O)[C@H](O)[C@H]1O)[C@H](O)[C@@H](O)CO
OUTPUT: 99.9

INPUT: Lab note: need cell viability for CN1CCN(c2ccc3nc(-c4c(N)c5c(F)cccc5[nH]c4=O)[nH]c3c2)CC1 [Dovitinib (TKI258) Lactate] on MOLM14, anyone have it?
OUTPUT: 0.3

INPUT: Item: Cc1cc(C(=O)Nc2nc3cccc(Cl)c3n2[C@@H]2CCCCN(C(=O)/C=C/CN(C)C)C2)ccn1 [Nazartinib (EGF816, NVS-816)] Test system: MOLM14 Read-out: cell viability Value: ?
OUTPUT: 48.9

INPUT: MOLM14 / cell viability / Cc1c(C)c2c(c(C)c1O)CCC(C)(CCCC(C)CCCC(C)CCCC(C)C)O2 (stereo not given) : value?
OUTPUT: 104

INPUT: Lab note: need cell viability with MOLM14 for entry C[C@H](NC(=O)CCC(F)(F)F)C(=O)N[C@@H]1C(=O)N(CCO)c2ncccc2-c2ccccc21 , please look it up.
OUTPUT: 103

INPUT: cell viability of CCOC(=O)c1cc2ccccc2oc1=O [Ethyl Coumarin-3-carboxylate] on MOLM14?
OUTPUT: 98
